# protocol.conditions: 343.15 K; 10000 kPa; Liquid
result.type: mass density (kg/m3)
Answers are plain numbers, in kg/m3.

[
  {
    "compound": "CCCOC(C)=O [propyl ethanoate]",
    "endpoint.value": 843.6
  },
  {
    "compound": "CCCCCOC(C)=O [pentyl ethanoate]",
    "endpoint.value": 838.5
  },
  {
    "compound": "CCOC(C)=O [ethyl acetate]",
    "endpoint.value": 851.2
  }
]

We now examine a further compound.
For CCCCOC(C)=O [butyl ethanoate] the compound record lists mass density as 840.7
